Origin of measurements: patent US12286443B2

These compounds were tested on JAK1 (Homo sapiens); IC50 is the recorded read-out.
Sequence (P23458 whole entry): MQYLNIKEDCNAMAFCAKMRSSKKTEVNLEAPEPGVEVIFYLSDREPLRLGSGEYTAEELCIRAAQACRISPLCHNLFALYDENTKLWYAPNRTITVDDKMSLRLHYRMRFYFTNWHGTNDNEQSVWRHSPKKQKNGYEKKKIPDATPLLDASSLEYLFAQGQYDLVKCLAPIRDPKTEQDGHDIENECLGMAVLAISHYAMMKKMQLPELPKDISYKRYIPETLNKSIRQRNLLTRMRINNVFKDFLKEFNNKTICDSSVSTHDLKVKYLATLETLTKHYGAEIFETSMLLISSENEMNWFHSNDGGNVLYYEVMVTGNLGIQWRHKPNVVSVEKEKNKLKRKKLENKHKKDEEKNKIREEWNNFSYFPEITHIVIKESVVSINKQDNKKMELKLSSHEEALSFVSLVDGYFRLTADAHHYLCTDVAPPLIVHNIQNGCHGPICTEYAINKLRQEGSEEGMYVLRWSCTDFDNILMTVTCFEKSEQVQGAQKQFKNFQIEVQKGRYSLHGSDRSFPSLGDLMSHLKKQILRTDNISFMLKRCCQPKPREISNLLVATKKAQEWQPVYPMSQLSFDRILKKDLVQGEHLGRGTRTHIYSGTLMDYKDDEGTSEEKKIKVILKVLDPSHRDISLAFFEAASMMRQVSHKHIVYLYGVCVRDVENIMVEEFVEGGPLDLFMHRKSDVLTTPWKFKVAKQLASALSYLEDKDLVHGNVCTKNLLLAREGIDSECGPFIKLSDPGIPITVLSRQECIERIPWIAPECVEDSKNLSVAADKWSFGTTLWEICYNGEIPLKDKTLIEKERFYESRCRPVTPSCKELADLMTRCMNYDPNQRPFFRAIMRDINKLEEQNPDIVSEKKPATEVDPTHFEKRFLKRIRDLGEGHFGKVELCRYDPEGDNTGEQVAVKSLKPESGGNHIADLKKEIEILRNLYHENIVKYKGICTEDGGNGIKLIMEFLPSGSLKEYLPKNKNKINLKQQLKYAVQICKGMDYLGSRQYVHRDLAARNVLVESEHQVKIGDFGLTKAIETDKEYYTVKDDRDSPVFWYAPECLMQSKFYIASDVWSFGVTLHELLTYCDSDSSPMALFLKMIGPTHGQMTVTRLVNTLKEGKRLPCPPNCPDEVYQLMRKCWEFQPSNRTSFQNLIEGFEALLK

Solved cases (3 shown):
>>> print(df.to_string())
                                   compound  quantity_name  value_reported
0  CC1(CNC(=O)c2noc3c2CN(c2ncnc4[nH]ccc24)CC3)CC(F)(F)C1 [Compound 199]           IC50        < 100 nM
1  O=C(NCC(CO)C(F)(F)F)c1noc2c1CN(c1ncnc3[nH]ccc13)CC2 (centres unmarked) [Compound 151]           IC50        < 100 nM
2  O=C(NCC1CC1)c1noc2c1CN(c1ncnc3[nH]ccc13)CC2 [Compound 180]           IC50   100 to 500 nM

Query: IC50; subject: O=C(N[C@H]1C[C@@](O)(C(F)(F)F)C1)c1noc2c1CN(c1ncnc3[nH]ccc13)CC2 [Compound 202]
< 100 nM

Do the same for O=C(NCCC(F)(F)F)c1nn(CCCCc2ccccc2)c2c1CN(c1ncnc3[nH]ccc13)CC2 [Compound 116] please
100 to 500 nM

Do the same for CS(=O)(=O)N1CC(CCNC(=O)c2noc3c2CN(c2ncnc4[nH]ccc24)CC3)C1 [Compound 169] please
500 to 2000 nM

Do the same for CS(=O)(=O)N1CCC(CNC(=O)c2noc3c2CN(c2ncnc4[nH]ccc24)CC3)C1 (centres unmarked) [Compound 166] please
500 to 2000 nM

Do the same for O=C(NCCN1CCC1)c1noc2c1CN(c1ncnc3[nH]ccc13)CC2 [Compound 152] please
> 2000 nM

----------
pIC50: −log10 of the molar value.
These compounds were tested on JAK2 (Homo sapiens); pIC50 is the recorded read-out.
Sequence (O60674 whole entry): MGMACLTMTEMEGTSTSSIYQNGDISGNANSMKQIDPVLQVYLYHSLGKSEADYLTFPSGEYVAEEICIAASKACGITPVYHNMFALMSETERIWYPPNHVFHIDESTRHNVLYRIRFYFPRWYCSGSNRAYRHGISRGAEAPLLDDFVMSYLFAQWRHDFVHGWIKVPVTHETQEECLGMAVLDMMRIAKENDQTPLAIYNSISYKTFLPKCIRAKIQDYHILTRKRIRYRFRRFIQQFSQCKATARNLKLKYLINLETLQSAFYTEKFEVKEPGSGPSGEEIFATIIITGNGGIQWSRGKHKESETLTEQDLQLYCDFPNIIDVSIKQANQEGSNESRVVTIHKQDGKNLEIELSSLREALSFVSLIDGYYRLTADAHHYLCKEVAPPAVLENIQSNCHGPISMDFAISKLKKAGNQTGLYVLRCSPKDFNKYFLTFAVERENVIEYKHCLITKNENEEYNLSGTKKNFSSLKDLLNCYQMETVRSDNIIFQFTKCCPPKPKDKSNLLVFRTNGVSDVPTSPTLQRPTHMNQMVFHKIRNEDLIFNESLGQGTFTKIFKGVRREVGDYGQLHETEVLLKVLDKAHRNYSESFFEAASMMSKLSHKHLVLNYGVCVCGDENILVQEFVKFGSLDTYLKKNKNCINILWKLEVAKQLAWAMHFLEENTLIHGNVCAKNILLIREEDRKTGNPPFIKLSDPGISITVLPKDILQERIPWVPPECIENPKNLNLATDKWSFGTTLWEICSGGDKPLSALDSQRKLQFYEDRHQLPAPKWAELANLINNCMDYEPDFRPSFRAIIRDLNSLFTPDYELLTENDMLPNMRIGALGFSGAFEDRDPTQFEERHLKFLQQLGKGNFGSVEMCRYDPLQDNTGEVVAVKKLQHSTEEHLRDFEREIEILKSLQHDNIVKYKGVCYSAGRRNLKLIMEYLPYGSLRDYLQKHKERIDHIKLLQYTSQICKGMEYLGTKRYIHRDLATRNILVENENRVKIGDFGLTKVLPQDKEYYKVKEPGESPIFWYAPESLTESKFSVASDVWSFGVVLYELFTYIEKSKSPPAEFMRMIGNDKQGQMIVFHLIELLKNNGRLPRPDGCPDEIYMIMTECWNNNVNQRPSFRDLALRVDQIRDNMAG

Solved cases (3 shown):
>>> print(df.to_string())
                                   compound         study_system  value_reported
0  O=C(NCCC(O)C1CCCC1)c1noc2c1CN(c1ncnc3[nH]ccc13)CC2 (stereo not shown) [Compound 159]  JAK2 (Homo sapiens)          < 5.70
1  CN(C)C1CN(CCNC(=O)c2noc3c2CN(c2ncnc4[nH]ccc24)CC3)C1 [Compound 160]  JAK2 (Homo sapiens)          < 5.70
2  O=C(NCCC(F)(F)F)c1noc2c1CN(c1ncnc3[nH]ccc13)CC2 [Compound 110]  JAK2 (Homo sapiens)          > 7.00

The record that follows has no pIC50 shown yet.
Query: pIC50; subject: O=C(NCC(F)(F)F)c1noc2c1CN(c1ncnc3[nH]ccc13)CC2 [Compound 178]
> 7.00

----------
These compounds were tested on JAK2 (Homo sapiens); IC50 is the recorded read-out.

Solved cases (2 shown):
                                   compound         study_system  quantity_name  value_reported
0  O=C(NC[C@@H]1CC[C@@H]1O)c1noc2c1CN(c1ncnc3[nH]ccc13)CC2 (relative stereo) [Compound 150-2]  JAK2 (Homo sapiens)           IC50   100 to 500 nM
1  CC1(CNC(=O)c2noc3c2CN(c2ncnc4[nH]ccc24)CC3)CC(F)(F)C1 [Compound 199]  JAK2 (Homo sapiens)           IC50   100 to 500 nM

Query: IC50; subject: O=C(NCCS(=O)(=O)N1CCC1)c1noc2c1CN(c1ncnc3[nH]ccc13)CC2 [Compound 134]
500 to 2000 nM

Do the same for CS(=O)(=O)N1CC(CCNC(=O)c2noc3c2CN(c2ncnc4[nH]ccc24)CC3)C1 [Compound 169] please
500 to 2000 nM

Do the same for O=C(c1noc2c1CN(c1ncnc3[nH]ccc13)CC2)N1CC(C(F)(F)F)C1 [Compound 194] please
< 100 nM

Do the same for CS(=O)(=O)N1CCN(CCNC(=O)c2noc3c2CN(c2ncnc4[nH]ccc24)CC3)CC1 [Compound 167] please
500 to 2000 nM

Do the same for O=C(NCCC(F)(F)F)c1n[nH]c2c1CN(c1ncnc3[nH]ccc13)CC2 [Compound 109] please
100 to 500 nM

Do the same for CCn1nc(C(=O)NCCC(F)(F)F)c2c1CCN(c1ncnc3[nH]ccc13)C2 [Compound 112] please
500 to 2000 nM

Do the same for O=C(NCCC(F)(F)F)c1nn(-c2ccccc2)c2c1CN(c1ncnc3[nH]ccc13)CC2 [Compound 114] please
500 to 2000 nM

Do the same for O=C(NCCC1CC(F)(F)C1)c1noc2c1CN(c1ncnc3[nH]ccc13)CC2 [Compound 148] please
500 to 2000 nM

Do the same for O=C(NCCC(F)(F)F)c1nn(CCCc2ccccn2)c2c1CN(c1ncnc3[nH]ccc13)CC2 [Compound 108] please
> 2000 nM

Do the same for CSC(CNC(=O)c1noc2c1CN(c1ncnc3[nH]ccc13)CC2)C(F)(F)F (stereo not shown) [Compound 191] please
100 to 500 nM

Do the same for O=C(NCCC(F)(F)F)c1nn(CCCc2ccccc2)c2c1CN(c1ncnc3[nH]ccc13)CC2 [Compound 115] please
> 2000 nM

Do the same for O=C(NC[C@@H]1CC[C@H]1O)c1noc2c1CN(c1ncnc3[nH]ccc13)CC2 (relative stereo) [Compound 150-1] please
500 to 2000 nM

Do the same for O=C(NCCC(F)(F)F)c1nn(C2CCOCC2)c2c1CN(c1ncnc3[nH]ccc13)CC2 [Compound 118] please
> 2000 nM

Do the same for O=C(NCC1CCC1O)c1noc2c1CN(c1ncnc3[nH]ccc13)CC2 (stereo not shown) [Compound 150] please
100 to 500 nM

----------
These molecules were tested on TYK2 (Homo sapiens, UniProt P29597); pIC50 is the recorded read-out.
Sequence (P29597 whole entry): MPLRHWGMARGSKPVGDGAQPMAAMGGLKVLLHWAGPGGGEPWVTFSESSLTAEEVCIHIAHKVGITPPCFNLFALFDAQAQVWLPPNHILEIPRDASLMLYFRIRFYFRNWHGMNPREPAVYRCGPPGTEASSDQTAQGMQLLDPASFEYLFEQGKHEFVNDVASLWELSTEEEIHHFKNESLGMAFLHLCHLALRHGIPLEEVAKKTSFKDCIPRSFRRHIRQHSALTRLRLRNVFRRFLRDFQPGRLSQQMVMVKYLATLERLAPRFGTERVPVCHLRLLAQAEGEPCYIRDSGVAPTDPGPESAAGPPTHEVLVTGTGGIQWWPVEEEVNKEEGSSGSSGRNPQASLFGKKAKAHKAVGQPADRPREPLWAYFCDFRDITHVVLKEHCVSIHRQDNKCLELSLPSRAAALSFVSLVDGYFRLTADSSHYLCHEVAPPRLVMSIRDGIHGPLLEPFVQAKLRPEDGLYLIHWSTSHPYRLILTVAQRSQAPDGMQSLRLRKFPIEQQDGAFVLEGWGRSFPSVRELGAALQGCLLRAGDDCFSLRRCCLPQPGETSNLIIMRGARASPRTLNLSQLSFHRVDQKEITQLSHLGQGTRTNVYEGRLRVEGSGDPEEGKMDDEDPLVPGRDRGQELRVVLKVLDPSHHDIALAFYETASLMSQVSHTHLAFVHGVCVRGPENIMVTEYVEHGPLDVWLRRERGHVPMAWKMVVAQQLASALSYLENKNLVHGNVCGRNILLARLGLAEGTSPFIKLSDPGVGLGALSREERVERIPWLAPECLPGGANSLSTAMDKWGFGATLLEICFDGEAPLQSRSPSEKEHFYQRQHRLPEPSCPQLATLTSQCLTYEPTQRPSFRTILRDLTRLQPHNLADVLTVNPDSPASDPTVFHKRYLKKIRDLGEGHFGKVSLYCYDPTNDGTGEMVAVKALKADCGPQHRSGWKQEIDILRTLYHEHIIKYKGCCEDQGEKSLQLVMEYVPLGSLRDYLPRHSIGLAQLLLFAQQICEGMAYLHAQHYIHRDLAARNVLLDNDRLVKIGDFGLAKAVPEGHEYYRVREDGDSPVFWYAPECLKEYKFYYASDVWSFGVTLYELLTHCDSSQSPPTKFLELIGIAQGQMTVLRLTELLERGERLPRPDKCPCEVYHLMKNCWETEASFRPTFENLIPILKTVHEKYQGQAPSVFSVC
pIC50: −log10 of the molar value.

Solved cases (3 shown):
>>> df
                           structure_string                         study_system  value_reported
0  O=C(c1noc2c1CN(c1ncnc3[nH]ccc13)CC2)N1CC(C(F)(F)F)C1  TYK2 (Homo sapiens, UniProt P29597)    6.30 to 7.00
1  CS(=O)(=O)N1CCN(CCNC(=O)c2noc3c2CN(c2ncnc4[nH]ccc24)CC3)CC1  TYK2 (Homo sapiens, UniProt P29597)          < 5.70
2  O=C(NCCN1CCC1)c1noc2c1CN(c1ncnc3[nH]ccc13)CC2  TYK2 (Homo sapiens, UniProt P29597)          < 5.70

The record that follows has no pIC50 shown yet.
Query: pIC50; subject: CNC(=O)[C@H]1C[C@H](NC(=O)c2nn(C)c3c2CN(c2ncnc4[nH]ccc24)CC3)C1
< 5.70

----------
molecular target: UniProtKB P23458
pIC50: −log10 of the molar value.
Item-by-item account of pIC50

>>> df
                                   molecule  quantity_name  value_reported
0  O=C(NC[C@@H]1CC[C@@H]1O)c1noc2c1CN(c1ncnc3[nH]ccc13)CC2 (relative stereo) [Compound 150-2]          pIC50    6.30 to 7.00
1  CS(=O)(=O)N1CCN(CCNC(=O)c2noc3c2CN(c2ncnc4[nH]ccc24)CC3)CC1 [Compound 167]          pIC50    6.30 to 7.00
2  Cc1cnc(CCNC(=O)c2noc3c2CN(c2ncnc4[nH]ccc24)CC3)o1 [Compound 139]          pIC50          < 5.70
3  O=C(NCCC(F)(F)F)C1=NOC2CN(c3ncnc4[nH]ccc34)CC12 (centres unmarked) [Compound 187]          pIC50    6.30 to 7.00
4  C=CCn1nc(C(=O)NCCC(F)(F)F)c2c1CCN(c1ncnc3[nH]ccc13)C2 [Compound 113]          pIC50    6.30 to 7.00

Query: pIC50; subject: O=C(NCC(O)C(F)(F)F)c1noc2c1CN(c1ncnc3[nH]ccc13)CC2 (centres unmarked) [Compound 190]
> 7.00

Do the same for O=C(NCCCC1(O)CC1)c1noc2c1CN(c1ncnc3[nH]ccc13)CC2 [Compound 145] please
6.30 to 7.00

Do the same for O=C(NC1CC(O)(C(F)(F)F)C1)c1noc2c1CN(c1ncnc3[nH]ccc13)CC2 (centres unmarked) [Compound 201] please
> 7.00

----------
pIC50: −log10 of the molar value.
These compounds were tested on JAK3 (Homo sapiens, UniProt P52333); pIC50 is the recorded read-out.
Sequence (P52333 whole entry): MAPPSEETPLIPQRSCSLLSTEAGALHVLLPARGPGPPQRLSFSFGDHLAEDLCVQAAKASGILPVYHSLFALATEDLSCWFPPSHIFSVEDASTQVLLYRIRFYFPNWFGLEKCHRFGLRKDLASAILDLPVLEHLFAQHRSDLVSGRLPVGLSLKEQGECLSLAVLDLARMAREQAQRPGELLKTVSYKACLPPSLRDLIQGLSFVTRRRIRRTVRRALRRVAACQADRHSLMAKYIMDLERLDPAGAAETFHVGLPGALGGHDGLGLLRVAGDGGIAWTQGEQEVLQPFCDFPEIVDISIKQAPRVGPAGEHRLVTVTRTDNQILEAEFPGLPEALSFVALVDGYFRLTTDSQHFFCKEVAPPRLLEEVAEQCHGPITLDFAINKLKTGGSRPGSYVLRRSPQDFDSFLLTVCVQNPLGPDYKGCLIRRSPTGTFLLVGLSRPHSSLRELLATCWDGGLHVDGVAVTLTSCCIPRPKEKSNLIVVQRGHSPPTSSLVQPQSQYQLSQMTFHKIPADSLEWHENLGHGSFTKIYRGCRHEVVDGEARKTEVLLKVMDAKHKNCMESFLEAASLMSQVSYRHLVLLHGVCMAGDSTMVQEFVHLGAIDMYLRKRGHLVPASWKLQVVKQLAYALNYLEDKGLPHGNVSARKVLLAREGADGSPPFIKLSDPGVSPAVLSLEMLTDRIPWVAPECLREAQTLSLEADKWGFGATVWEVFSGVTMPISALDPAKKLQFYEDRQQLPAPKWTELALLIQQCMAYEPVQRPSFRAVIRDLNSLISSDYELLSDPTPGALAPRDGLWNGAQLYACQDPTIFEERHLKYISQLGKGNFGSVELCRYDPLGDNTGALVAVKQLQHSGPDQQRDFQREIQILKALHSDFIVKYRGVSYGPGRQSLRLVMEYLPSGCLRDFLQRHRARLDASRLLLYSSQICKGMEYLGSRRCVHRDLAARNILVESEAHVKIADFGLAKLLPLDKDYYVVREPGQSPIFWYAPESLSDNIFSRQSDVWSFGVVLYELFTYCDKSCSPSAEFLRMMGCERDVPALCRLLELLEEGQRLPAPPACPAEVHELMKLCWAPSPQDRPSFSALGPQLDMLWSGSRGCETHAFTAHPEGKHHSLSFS

Solved cases (3 shown):
In [3]: df
Out[3]:
                                   compound  value_reported
0  O=C(NCC1CCC1O)c1noc2c1CN(c1ncnc3[nH]ccc13)CC2 (centres unmarked) [Compound 150]          > 7.00
1  CS(=O)(=O)N1CCCC1CCNC(=O)c1noc2c1CN(c1ncnc3[nH]ccc13)CC2 (centres unmarked) [Compound 164]    6.30 to 7.00
2  C=CCn1nc(C(=O)NCCC(F)(F)F)c2c1CCN(c1ncnc3[nH]ccc13)C2 [Compound 113]          > 7.00

Query: pIC50; subject: O=C(c1noc2c1CN(c1ncnc3[nH]ccc13)CC2)N1CC(C(F)(F)F)C1 [Compound 194]
> 7.00

Do the same for O=C(NCCN1CCC1)c1noc2c1CN(c1ncnc3[nH]ccc13)CC2 [Compound 152] please
< 5.70

Do the same for O=C(NCCC1CC(F)(F)C1)c1noc2c1CN(c1ncnc3[nH]ccc13)CC2 [Compound 148] please
6.30 to 7.00

Do the same for O=C(NCCC(F)(F)F)c1n[nH]c2c1CN(c1ncnc3[nH]ccc13)CC2 [Compound 109] please
> 7.00

Do the same for O=C(NCCC(O)C1CCCC1)c1noc2c1CN(c1ncnc3[nH]ccc13)CC2 (centres unmarked) [Compound 159] please
6.30 to 7.00

Do the same for O=C(NCCS(=O)(=O)N1CCCC1)c1noc2c1CN(c1ncnc3[nH]ccc13)CC2 [Compound 135] please
6.30 to 7.00

Do the same for O=C(NCCC(F)(F)F)c1nn(CCc2cccnc2)c2c1CN(c1ncnc3[nH]ccc13)CC2 [Compound 106] please
6.30 to 7.00

Do the same for CNS(=O)(=O)CCNC(=O)c1noc2c1CN(c1ncnc3[nH]ccc13)CC2 [Compound 157] please
> 7.00
